# Protocol details: inhibitors of the yeast RAM network, pilot screen, dse1pr::URA3 reporter, 5-FOA selection (AID 869);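 further: 0% = DMSO wells with no growth and 100% = 10 µM 1-NA-PP1 with full growth; RAM network block rescues cells from 5-FOA so hits raise OD615 growth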
# Experimental conditions: S. cerevisiae dse1pr::URA3 5-FOA growth, OD615, 2 d; at 10 µM; active compounds read high; strain carries analog-sensitive mutant Cbk1 kinase
Outcome measure: inhibition (%)
Give just the number in %; leave the unit off.

{"columns": ["Compound", "inhibition / %"],
 "data": [
  ["C=C(C)Cn1c(NCCC)nc2c1c(=O)n(C)c(=O)n2C", 2.74]
]}

[ask] Using the record for CCOC(=O)C1CCCN(c2cc(=O)n(-c3ccccc3Cl)c(=O)[nH]2)C1 (stereo unspecified) , state its measured inhibition.
[reply] 1.53

[ask] Using the record for `NC(=O)c1cc(Cl)cn(-c2ccccc2)c1=O` , state its measured inhibition.
[reply] 1.81

[ask] Using the record for `COc1cc(C)c(N(C(C)=O)c2ccccc2)c(C)c1` , state its measured inhibition.
[reply] 1.97

[ask] Using the record for `O=C(Cc1cc(=O)[nH]c(=O)[nH]1)NCCN1CCOCC1` , state its measured inhibition.
[reply] 0.35

[ask] Using the record for O=C(Nc1ccc(Br)cc1F)c1ccc2c(c1)N(Cc1ccccc1)C(=O)CS2=O (stereo unspecified) , state its measured inhibition.
[reply] 2.64

====

# Protocol details: OD615 S. cerevisiae growth inhibition, permissive medium, pilot counter-assay, permissive growth control for S. cerevisiae lifespan shortening project (AID 705)
# Experimental conditions: OD615, 24 h, at 10 µM, active compounds read high
Each entry below carries its reported growth inhibition.
Give just the number in %; leave the unit off.

As a guide, the following entries are already answered.
{"columns": ["Compound", "Outcome measure", "Value observed"],
 "data": [
  ["Cc1c(C(=O)N2CCC(C(N)=O)CC2)sc(N)c1C#N", "growth inhibition", -12.1],
  ["Cc1nc(C)c(C(=O)Nc2ccccc2)s1", "growth inhibition", -0.755],
  ["Cc1cc(C(=O)Nc2nnc(C3CCCCC3)s2)cs1", "growth inhibition", -9.12],
  ["CCCC(=O)C1C(=O)CC(C)(C)C(c2cc(C)no2)C1=O (stereo unspecified)", "growth inhibition", -22.4],
  ["CN1CCN(C(=O)C2CCC(CNS(=O)(=O)c3cccc4cccnc34)CC2)CC1 (stereo unspecified)", "growth inhibition", 4.4]
]}

[ask] Using the record for `COc1ccc(-n2c3c(cc(C(=O)N4CCC(C)CC4)c2=O)C(=O)CC(C)(C)C3)cc1` , state its measured growth inhibition.
[reply] -3.21

[ask] Using the record for CC1CCC(n2c(=S)[nH]c3ccccc3c2=O)CC1 (stereo unspecified) , state its measured growth inhibition.
[reply] 13

[ask] Using the record for `c1ccc(-c2nnn(C34CC5CC(CC(C5)C3)C4)n2)cc1` , state its measured growth inhibition.
[reply] -4.34

[ask] Using the record for `CC(C)n1c(NCc2cc(Cl)ccc2O)nc2ccccc21` , state its measured growth inhibition.
[reply] -3.83

[ask] Using the record for CCCN1C(=O)c2cc(C(=O)NCc3cccs3)ccc2C1O (stereo unspecified) , state its measured growth inhibition.
[reply] -5.98

[ask] Using the record for `CC(=O)Nc1cc2c(cc1C(=O)c1ccccc1)OCCO2` , state its measured growth inhibition.
[reply] -3.76

[ask] Using the record for `C=CCn1cc(C(=O)N2CCN(C)CC2)c(=O)c2cc(S(=O)(=O)N3CCCC3)ccc21` , state its measured growth inhibition.
[reply] -6.54

[ask] Using the record for Cc1ccc(C(=O)CC2(O)C(=O)N(C)c3ccccc32)o1 (stereo unspecified) , state its measured growth inhibition.
[reply] -7.12

[ask] Using the record for `CCC(=O)N1CCc2cc(Br)cc(S(=O)(=O)N3CCN(C(=O)c4ccco4)CC3)c21` , state its measured growth inhibition.
[reply] -4.72

[ask] Using the record for CCOc1ccc(C2C(C(=O)NC)=C(C)Nc3nc4ccccc4n32)cc1OC (stereo unspecified) , state its measured growth inhibition.
[reply] -4.37

[ask] Using the record for CCOC(=O)C1Cn2c(nc3c(c2=O)C(C)(CC)Cc2ccccc2-3)S1 (stereo unspecified) , state its measured growth inhibition.
[reply] -4.55

[ask] Using the record for `COC(=O)c1cc(-c2ccc(Br)cc2)on1` , state its measured growth inhibition.
[reply] 1.85

====

Each entry below carries its reported RAM network inhibition.
# Protocol details: RAM signaling pathway blockade in yeast – S. cerevisiae, Pdr1DBD-CYC8 efflux-inhibited sensitized strain, primary screen (AID 1298);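 further: 0% = DMSO untreated cells without growth and 100% = 10 µM 1-NA-PP1 full growth; higher means more yeast growth rescued from 5-FOA killing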
# Experimental conditions: S. cerevisiae cbk1-as DSE1-URA3 strain, 5-FOA growth OD615, 2 d; at 50 µM; active compounds read high
Give just the number in %; leave the unit off.

[ask] Using the record for CC(C)CC(NS(=O)(=O)c1ccc2c(c1)oc(=O)n2C)C(=O)NCc1cccnc1 (stereo not drawn) , state its measured RAM network inhibition.
[reply] 0.99

====

# Protocol details: Restrictive medium S. cerevisiae growth inhibition, OD615, pilot screen of yeast lifespan reduction project, restrictive growth control (AID 706);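 further: modified DeaD lifespan yeast strain shifted to restrictive glucose medium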
# Experimental conditions: OD615, 48 h, at 10 µM, active compounds read high
Calls of active or inactive are those of the source.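 How the source made its calls: active means growth inhibition above a set limit, 3 SD over mean compound inhibition, in both replicates (cut at about 43% in these data); inconclusive means above the limit in only one replicate; inactive means at or below the limit in both replicates.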
Outcome measure: growth inhibition

As a guide, the following entries are already answered.
{"columns": ["Molecule", "Outcome measure", "Value observed"],
 "data": [
  ["O=C(Cn1nc(Cc2cccnc2)c2ccccc2c1=O)N1CCN(c2ccccn2)CC1", "growth inhibition", "2.73% (inactive)"],
  ["CCc1ccc(Cn2nnc(C(=O)Nc3cccc(C)c3)c2N)cc1", "growth inhibition", "-2.92% (inactive)"],
  ["Cc1cc(=O)c2c(C)nn(-c3ccccc3)c2[nH]1", "growth inhibition", "2.11% (inactive)"],
  ["CC(C)Oc1cc(O)c2c(=O)c(-c3ccc(O)cc3)coc2c1", "growth inhibition", "-15.1% (inactive)"],
  ["COc1ccc(C2CC(=O)N3CN(c4ccc(C)c(Cl)c4)CSC3=C2C#N)cc1OC (stereo unspecified)", "growth inhibition", "21.1% (inactive)"]
]}

[ask] Using the record for `COc1ccc(N(CC(=O)NCc2cccs2)S(=O)(=O)c2c(C)nn(C)c2C)cc1` , state its measured growth inhibition.
[reply] -15.2% (inactive)

[ask] Using the record for COc1ccc(C2C(C(=O)N3CCCCC3)c3ccccc3C(=O)N2C)cc1 (stereo unspecified) , state its measured growth inhibition.
[reply] -8.27% (inactive)

[ask] Using the record for `Cc1ccc(-n2nnc3c(=O)n(Cc4cccc(C)c4)cnc32)cc1` , state its measured growth inhibition.
[reply] -6.1% (inactive)

[ask] Using the record for O=C1c2oc3ccccc3c(=O)c2C(c2cccc(O)c2)N1CCCN1CCOCC1 (stereo unspecified) , state its measured growth inhibition.
[reply] -7.73% (inactive)

[ask] Using the record for `Cc1nn(C)cc1CN(C)C(=O)c1sc2cccc(Cl)c2c1Cl` , state its measured growth inhibition.
[reply] 5.83% (inactive)

[ask] Using the record for `COc1ccc(-n2nnc3c(=O)n(CC(=O)OCc4ccccc4)cnc32)cc1` , state its measured growth inhibition.
[reply] 1.45% (inactive)

====

# Protocol details: growth suppression of PTEN-deleted HCT116, pilot screen, cell-based, HCT116 clonal line, CellTiter-Glo (AID 824);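 further: 0% = 20 µM Hyamine control and 100% = vehicle cell control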
# Experimental conditions: 60 h, at 10 µM, active compounds read low
Results filed as inconclusive are left out.
Each entry below carries its reported viability.
Give just the number in %; leave the unit off.

{"columns": ["Compound", "Value observed"],
 "data": [
  ["CC(CN(C)Cc1ccccc1)OC(=O)C1COc2ccccc2O1 (stereo unspecified)", 102],
  ["O=C(NCCN1CCN(C(=O)Nc2ccccc2)CC1)Nc1ccccc1", 94.8],
  ["O=C(c1cnccn1)N(c1ccccc1)C1(C(=O)NC2CCCCC2)CCCCC1", 90.7]
]}

[ask] Using the record for `CCOc1ccc(N(CC(=O)OC)S(=O)(=O)c2c(C)noc2C)cc1` , state its measured viability.
[reply] 95.1

[ask] Using the record for Cc1ccc(NC(=O)C2CCCN(S(=O)(=O)c3ccc4c(c3)oc(=O)n4C)C2)nc1 (stereo unspecified) , state its measured viability.
[reply] 101

[ask] Using the record for `CCc1nc2oc(C(=O)c3ccccc3)c(N)c2c2c1COC(C)(C)C2` , state its measured viability.
[reply] 80.1

[ask] Using the record for `O=C(Cn1nnc(-c2ccccc2F)n1)Nc1cccc2ncccc12` , state its measured viability.
[reply] 98

[ask] Using the record for `O=C(Nc1nnc(-c2ccc(Cl)s2)o1)C1CCCCC1` , state its measured viability.
[reply] 63.2

====

# Protocol details: OD615 S. cerevisiae growth inhibition, permissive medium, pilot counter-assay, permissive growth control for S. cerevisiae lifespan shortening project (AID 705)
# Experimental conditions: OD615, 24 h, at 10 µM, active compounds read high
Outcome measure: growth inhibition (%)
Give just the number in %; leave the unit off.

As a guide, the following entries are already answered.
{"columns": ["Compound", "Outcome measure", "Value observed"],
 "data": [
  ["O=C(Cn1nnc(-c2ccccc2F)n1)NCCc1ccccc1", "growth inhibition", -13.3],
  ["CCc1ccccc1N1CSC2=C(C#N)C(c3ccccc3F)CC(=O)N2C1 (stereo not drawn)", "growth inhibition", -2.74],
  ["COc1ccc(C2CC(=O)N3CN(c4ccccc4F)CSC3=C2C#N)cc1OC (stereo not drawn)", "growth inhibition", 7.21],
  ["Cn1c(Cn2c(=O)sc3ccccc32)nnc1SCC(=O)NCc1ccc(F)cc1", "growth inhibition", -13.5],
  ["O=C(NCCn1cc(SCC(=O)N2CCOCC2)c2ccccc21)c1ccccc1", "growth inhibition", 1.06]
]}

[ask] Using the record for `CC(=O)c1ccc(OCC(C)C)c(CC(C(N)=O)C(N)=O)c1` , state its measured growth inhibition.
[reply] 1.42

[ask] Using the record for `NC(=O)CSc1nnc(-c2ccncc2)n1-c1ccc(Cl)cc1` , state its measured growth inhibition.
[reply] -5.39

[ask] Using the record for Cc1oc(-c2cccs2)nc1CS(=O)CC(=O)NCCc1ccccc1 (stereo not drawn) , state its measured growth inhibition.
[reply] 0.14
